Target: BB7 (RNA-dependent RNA polymerase hepatitis C virus protein sequence derived from HCV replicon) (Hepatitis C virus genotype 1b)
Sequence (Q9WMX2 2420-3010): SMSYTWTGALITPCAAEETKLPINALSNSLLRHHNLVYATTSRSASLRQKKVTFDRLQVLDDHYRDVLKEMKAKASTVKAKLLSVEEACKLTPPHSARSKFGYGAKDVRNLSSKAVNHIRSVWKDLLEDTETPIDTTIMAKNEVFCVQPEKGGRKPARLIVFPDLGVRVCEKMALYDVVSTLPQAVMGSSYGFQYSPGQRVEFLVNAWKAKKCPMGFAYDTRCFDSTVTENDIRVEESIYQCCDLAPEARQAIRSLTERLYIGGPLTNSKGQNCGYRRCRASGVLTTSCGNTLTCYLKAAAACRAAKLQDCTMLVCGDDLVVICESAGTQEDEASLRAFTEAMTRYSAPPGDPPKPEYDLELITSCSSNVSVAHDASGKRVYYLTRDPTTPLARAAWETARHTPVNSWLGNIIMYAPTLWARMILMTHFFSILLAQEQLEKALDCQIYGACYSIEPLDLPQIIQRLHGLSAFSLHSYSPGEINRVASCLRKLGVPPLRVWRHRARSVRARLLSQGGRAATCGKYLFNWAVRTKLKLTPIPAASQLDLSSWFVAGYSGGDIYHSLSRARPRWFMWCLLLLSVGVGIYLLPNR

{"compound": "CCCC1(C(=O)O)OCCc2c1[nH]c1c(F)ccc(C#N)c21 (stereo not drawn)", "result.comparator": "=", "IC50 [µM]": 10}
{"compound": "N#Cc1ccc(F)c2[nH]c3c(c12)CCOC3(CC(=O)O)C1CC1 (stereo not drawn)", "result.comparator": ">", "IC50 [µM]": 30}
{"compound": "N#Cc1ccc(F)c2[nH]c3c(c12)CCOC3(CC(=O)O)C1CCCC1 (stereo not drawn)", "result.comparator": ">", "IC50 [µM]": 30}
{"compound": "CCCCOc1cc(C#N)c2c3c([nH]c2c1C)C(CCC)(CC(=O)O)OCC3 (stereo not drawn)", "result.comparator": "=", "IC50 [µM]": 0.06}
{"compound": "COCC1(CC(=O)O)OCCc2c1[nH]c1ccc(Cl)c(Cl)c21 (stereo not drawn)", "result.comparator": ">", "IC50 [µM]": 24}
{"compound": "CCCC1(CC(=O)O)OCCc2c1[nH]c1c(C)c(OCCCF)cc(C#N)c21 (stereo not drawn)", "result.comparator": "=", "IC50 [µM]": 0.03}
{"compound": "CC[C@H](C)[C@]1(CC(=O)O)OCCc2c1[nH]c1c(Cl)ccc(C#N)c21", "result.comparator": "=", "IC50 [µM]": 9.4}
{"compound": "O=C(O)CC1(C2CCC2)OCCc2c1[nH]c1c(F)ccc(C(F)(F)F)c21 (stereo not drawn)", "result.comparator": "=", "IC50 [µM]": 9.4}
{"compound": "CCC[C@@]1(C(=O)O)OCCc2c1[nH]c1c(F)ccc(C#N)c21", "result.comparator": ">", "IC50 [µM]": 30}

---

Target: NS5B from the BK strain (genotype 1b) (Hepatitis C virus genotype 1b, UniProt P26663)
Construct: NS5B from the BK strain (genotype 1b) is expressed in E. coli as a protein in which the 21 C-terminal amino acids are replaced; made in house; host or cells: E. coli
Sequence (P26663 2420-2989): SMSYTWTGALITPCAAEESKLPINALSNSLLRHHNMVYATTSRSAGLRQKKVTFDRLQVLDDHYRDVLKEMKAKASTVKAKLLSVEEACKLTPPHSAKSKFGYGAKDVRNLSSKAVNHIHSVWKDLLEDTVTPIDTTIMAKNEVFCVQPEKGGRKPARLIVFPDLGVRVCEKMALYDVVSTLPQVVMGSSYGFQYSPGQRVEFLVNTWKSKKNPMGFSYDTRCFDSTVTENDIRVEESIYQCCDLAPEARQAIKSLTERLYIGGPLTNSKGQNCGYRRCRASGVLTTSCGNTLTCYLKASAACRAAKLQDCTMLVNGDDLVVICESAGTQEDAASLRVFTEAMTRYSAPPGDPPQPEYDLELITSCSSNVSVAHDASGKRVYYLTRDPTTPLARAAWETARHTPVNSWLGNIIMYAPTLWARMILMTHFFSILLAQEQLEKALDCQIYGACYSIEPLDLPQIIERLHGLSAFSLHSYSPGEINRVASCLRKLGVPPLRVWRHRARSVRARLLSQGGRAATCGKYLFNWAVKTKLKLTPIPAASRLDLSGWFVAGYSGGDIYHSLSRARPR
Assay: Hepatitis C polymerase inhibition, NS5B BK strain, 33P-GTP filter assay
Assay type: biochemical
Conditions: Table 1B; NS5B BK strain; read-out: BK IC50
measured.parameter: log10 IC50 (log10 of the value in nM)

{"compound": "CC[C@@H](C)[C@@]1(CC(=O)O)OCCc2c1[nH]c1c(F)ccc(C#N)c21 (single isomer, unassigned) [Example 312]", "val": 4.20}
{"compound": "CCCC1(CC(=O)O)OCCc2c1[nH]c1c(C)ccc(Cl)c21 (stereo not drawn) [Example 260]", "val": 2.60}
{"compound": "CC[C@@H](C)[C@@]1(CC(=O)O)OCCc2c1[nH]c1c(C)ccc(C#N)c21 (racemic) [Example 290]", "val": 3.51}
{"compound": "CC[C@H](C)[C@@]1(CC(=O)O)OCCc2c1[nH]c1c(F)ccc(C#N)c21 [Example 315]", "val": 2.60}
{"compound": "CC[C@H](C)C1(CC(=O)O)OCCc2c1[nH]c1c(C)ccc(Cl)c21 (mixture of isomers) [Example 261]", "val": 2.60}
{"compound": "CCCCC1(CC(=O)O)OCCc2c1[nH]c1c(C)ccc(C(F)(F)F)c21 (stereo not drawn) [Example 273]", "val": 3.15}
{"compound": "Cc1ccc(Cl)c2c3c([nH]c12)C(CC(=O)O)(C1CCC1)OCC3 (stereo not drawn) [Example 259]", "val": 2.70}
{"compound": "CCCC1(CC(=O)O)OCCc2c1[nH]c1c(C#N)ccc(C(F)(F)F)c21 (stereo not drawn) [Example 276]", "val": 3.11}
{"compound": "O=C(O)CC1(CCC(F)(F)F)OCCc2c1[nH]c1c(Cl)ccc(C(F)(F)F)c21 (stereo not drawn) [Example 263]", "val": 3.11}
{"compound": "CC[C@H](C)[C@]1(CC(=O)O)OCCc2c1[nH]c1c(Cl)ccc(C#N)c21 [Example 326]", "val": 3.81}
{"compound": "CCCC1(CC(=O)O)OCCc2c1[nH]c1c(C)c(OC)cc(C#N)c21 (stereo not drawn) [Example 363]", "val": 2.56}
{"compound": "Cc1ccc([N+](=O)[O-])c2c3c([nH]c12)C(CC(=O)O)(C1CCC1)OCC3 (stereo not drawn) [Example 299]", "val": 2.70}
{"compound": "CC[C@H](C)[C@@]1(CC(=O)O)OCCc2c1[nH]c1c(C)ccc(C#N)c21 (racemic) [Example 289]", "val": 2.08}
{"compound": "CCCC1(CC(=O)O)OCCc2c1[nH]c1c(F)ccc(C(F)(F)F)c21 (stereo not drawn) [Example 268]", "val": 3.66}
{"compound": "CCCC1(CC(=O)O)OCCc2c1[nH]c1cc(Cl)c(Cl)cc21 (stereo not drawn) [Example 240]", "val": 3.95}
{"compound": "CCCC1(CC(=O)O)OCCc2c1[nH]c1c(C)c(C(=O)N(C)C)cc(C#N)c21 (stereo not drawn) [Example 358]", "val": 4.20}
{"compound": "CCCC1(CC(=O)O)OCCc2c1[nH]c1c(C)c(OCCCF)cc(C#N)c21 (stereo not drawn) [Example 370]", "val": 1.60}
{"compound": "CCCOc1cc(C#N)c2c3c([nH]c2c1C)C(CCC)(CC(=O)O)OCC3 (stereo not drawn) [Example 359]", "val": 1.85}
{"compound": "C=CCCC1(CC(=O)O)OCCc2c1[nH]c1c(F)ccc(C#N)c21 (stereo not drawn) [Example 302]", "val": 3.60}
{"compound": "CCCC1(CC(=O)O)OCCc2c1[nH]c1c(Cl)ccc(C)c21 (stereo not drawn) [Example 262]", "val": 3.43}
{"compound": "CC[C@H](C)C1(CC(=O)O)OCCc2c1[nH]c1c(C)cc(F)c(C#N)c21 (mixture of isomers) [Example 318]", "val": 2.15}
{"compound": "N#Cc1ccc(F)c2[nH]c3c(c12)CCOC3(CC(=O)O)C1CCCCC1 (stereo not drawn) [Example 309]", "val": 4.41}
{"compound": "CC[C@@H](C)[C@@]1(C(=O)O)OCCc2c1[nH]c1c(F)ccc(C#N)c21 (relative stereo) [Example 349]", "val": 3.64}
{"compound": "Cc1cc(F)c(C#N)c2c3c([nH]c12)C(CC(=O)O)(C1CCC1)OCC3 (stereo not drawn) [Example 317]", "val": 2.78}
{"compound": "O=C(O)CC1(CCC(F)(F)F)OCCc2c1[nH]c1c(Cl)ccc(Cl)c21 (stereo not drawn) [Example 245]", "val": 2.60}
{"compound": "CC[C@H](C)C1(CC(=O)O)OCCc2c1[nH]c1c(C)ccc([N+](=O)[O-])c21 (mixture of isomers) [Example 300]", "val": 2.15}
{"compound": "CCCC1(CC(=O)O)OCCc2c1[nH]c1c(C(F)(F)F)ccc(C(F)(F)F)c21 (stereo not drawn) [Example 271]", "val": 3.43}
{"compound": "CCC[C@@]1(CC(=O)O)OCCc2c1[nH]c1c(Cl)ccc(C#N)c21 [Example 323]", "val": 3.69}

---

Molecular target: NS5B from the BK strain (genotype 1b) (Hepatitis C virus genotype 1b, UniProt P26663)
Construct: NS5B from the BK strain (genotype 1b) is expressed in E. coli as a protein in which the 21 C-terminal amino acids are replaced; made in house; host or cells: E. coli
Assay: Hepatitis C polymerase inhibition, NS5B BK strain, 33P-GTP filter assay
Type: biochemical
Conditions: Table 1A; 20 μM compound; read-out: HCV pol % inh at 20 μM
# cutoff 40% applies to inhibition at 20 µM; >= gives True, < gives False

{"compound": "CCCC1(CC(=O)O)OCCc2c1[nH]c1c(Br)cccc21 (stereo not drawn) [Example 82]", "target.of.assay": "NS5B from the BK strain (genotype 1b) (Hepatitis C virus genotype 1b, UniProt P26663)", "group": "True"}
{"compound": "CC1(CC(=O)O)OCCc2c1[nH]c1c(Cl)ccc(C(F)(F)F)c21 (stereo not drawn) [Example 129]", "target.of.assay": "NS5B from the BK strain (genotype 1b) (Hepatitis C virus genotype 1b, UniProt P26663)", "group": "True"}
{"compound": "CCC1(CC(=O)O)OCCc2c1[nH]c1c(F)cc(F)c(Br)c21 (stereo not drawn) [Example 189]", "target.of.assay": "NS5B from the BK strain (genotype 1b) (Hepatitis C virus genotype 1b, UniProt P26663)", "group": "True"}
{"compound": "CCCC1(CC(=O)O)OCCc2c1[nH]c1c(-c3cccc(N)c3)cccc21 (stereo not drawn) [Example 97]", "target.of.assay": "NS5B from the BK strain (genotype 1b) (Hepatitis C virus genotype 1b, UniProt P26663)", "group": "False"}
{"compound": "CCC1(CC(=O)O)OCCc2c1[nH]c1c(C(F)(F)F)cccc21 (stereo not drawn) [Example 116]", "target.of.assay": "NS5B from the BK strain (genotype 1b) (Hepatitis C virus genotype 1b, UniProt P26663)", "group": "False"}
{"compound": "CCCC1(CC(=O)O)OCCc2c1[nH]c1cccc(Br)c21 (stereo not drawn) [Example 22]", "target.of.assay": "NS5B from the BK strain (genotype 1b) (Hepatitis C virus genotype 1b, UniProt P26663)", "group": "True"}
{"compound": "O=C(O)CC1(c2cccc([N+](=O)[O-])c2)OCCc2c1[nH]c1cccc(Cl)c21 (stereo not drawn) [Example 19]", "target.of.assay": "NS5B from the BK strain (genotype 1b) (Hepatitis C virus genotype 1b, UniProt P26663)", "group": "False"}
{"compound": "CCCC1(CC(=O)O)OCCc2c1[nH]c1c(Cl)cc(C)c(I)c21 (stereo not drawn) [Example 217]", "target.of.assay": "NS5B from the BK strain (genotype 1b) (Hepatitis C virus genotype 1b, UniProt P26663)", "group": "True"}
{"compound": "C/C=C/CCC1(CC(=O)O)OCCc2c1[nH]c1cccc(Br)c21 (stereo not drawn) [Example 24]", "target.of.assay": "NS5B from the BK strain (genotype 1b) (Hepatitis C virus genotype 1b, UniProt P26663)", "group": "False"}
